# TGT: human Edg-2 receptor (LPA1 receptor) (Homo sapiens, UniProt Q92633)
# Sequence (Q92633 whole entry): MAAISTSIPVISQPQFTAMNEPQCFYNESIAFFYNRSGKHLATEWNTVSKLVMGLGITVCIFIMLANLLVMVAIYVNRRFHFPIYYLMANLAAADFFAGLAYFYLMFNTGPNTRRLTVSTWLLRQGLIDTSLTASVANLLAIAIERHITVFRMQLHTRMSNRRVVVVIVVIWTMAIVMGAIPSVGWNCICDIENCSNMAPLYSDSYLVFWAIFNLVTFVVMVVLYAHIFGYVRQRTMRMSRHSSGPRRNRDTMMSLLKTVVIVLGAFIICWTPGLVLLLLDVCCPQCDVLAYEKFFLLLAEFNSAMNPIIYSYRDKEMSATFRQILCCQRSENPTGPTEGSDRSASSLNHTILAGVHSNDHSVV
# METHOD NOTES: Edg-2 receptor inhibition by FLIPR calcium fluorescence measurement (LPA-mediated calcium liberation)
# ASSAY CONDITIONS: CHO cells stably overexpressing human Edg-2 receptor; LPA 18:1 100 nM; fluo-4 fluorescence; triplicate; read-out: Inhibitory concentrations IC50 for inhibition of the Edg-2 receptor
pIC50: −log10 of the molar value.
ENDPOINT LABEL: pIC50

[[record]]
compound = "COc1ccc(C(=O)NC2(C(=O)O)Cc3ccccc3C2)cc1OCCc1cccc(C(N)=O)c1 [Example 95]"
endpoint_label = "pIC50"
recorded_value = "4.52 to 6.00"

[[record]]
compound = "COc1c(F)cc(C(=O)NC2(C(=O)O)Cc3ccccc3C2)cc1-c1cccc(C(C)C)c1 [Example 360]"
endpoint_label = "pIC50"
recorded_value = "> 7.00"

[[record]]
compound = "COc1ccc(C(=O)NC2(C(=O)O)Cc3ccccc3C2)cc1OCCC1CCCC1 [Example 150]"
endpoint_label = "pIC50"
recorded_value = "4.52 to 6.00"

[[record]]
compound = "COc1ccc(C(=O)NC2(C(=O)O)Cc3ccccc3C2)cc1OCCC1CCCCC1 [Example 30]"
endpoint_label = "pIC50"
recorded_value = "4.52 to 6.00"

[[record]]
compound = "Cc1cccc(CCOc2cc(C(=O)NC3(C(=O)O)Cc4ccccc4C3)ccc2OCC(=O)O)c1 [Example 271]"
endpoint_label = "pIC50"
recorded_value = "6.00 to 7.00"

[[record]]
compound = "COc1ccc(C(=O)NC2(C(=O)O)Cc3ccccc3C2)cc1-c1cccc(C(C)C)c1 [Example 196]"
endpoint_label = "pIC50"
recorded_value = "> 7.00"

[[record]]
compound = "COc1ccc(C(=O)NC2(C(=O)O)Cc3cccnc3C2)cc1OCCc1cccc(C)c1 (centres unmarked) [Example 101]"
endpoint_label = "pIC50"
recorded_value = "4.52 to 6.00"

[[record]]
compound = "COc1ccc(C(=O)NC2(C(=O)O)Cc3ccccc3C2)cc1OCc1csc2ccccc12 [Example 72]"
endpoint_label = "pIC50"
recorded_value = "4.52 to 6.00"

